- ASSAYED_TARGET: ecNadD (Escherichia coli (strain K12), UniProt P0A752)
- ASSAY_EXPLANATION: biochemical
- ASSAY_CONDITIONS: IC50 ecNadD
Just a reminder that ties go to class 0: only IC50 strictly below 30 µM counts as class 1.

// below: answered molecules
O=C(CCC(=O)Nc1ccccc1Br)N/N=C/c1c2ccccc2cc2ccccc12    class 1
Nc1c(C(=O)Nc2cc(F)ccc2F)sc2nc(-c3cccs3)ccc12 [03_01]    class 1
CC(/C=N/NC(=O)CCC(=O)Nc1ccc(Br)cc1)c1ccc2ccccc2c1 (stereo not drawn)    class 0

Query: Decide: IC50 of `Nc1c(C(=O)Nc2ccc(F)c(F)c2)sc2nc(-c3ccc(F)cc3)ccc12` strictly below 30 µM?
Reply: class 0

====

Listed compounds paired with reported […]. coli
- ASSAYED_TARGET: ecNadD (Escherichia coli (strain K12))
- ASSAY_EXPLANATION: biochemical
- Type: biochemical
API: value field is a number in %; no unit string.

Reference set (5 entries):
N#CC1=C(N)OC(c2cccs2)=C(C#N)C1c1cccs1 (stereo not shown)    26
Sc1nnc(-c2ccncc2)n1-c1ccccc1Cl    19
COc1ccc(S(=O)(=O)Nc2ccc(CC#N)cc2)cc1C    3
O=S(=O)(Nc1ccc(Br)c(Cl)c1)c1cccs1    0
Nc1nc(-c2cccc(Br)c2)cs1    0

Query: Fill blank: measured […]. coli of the compound `O=C(O)CSc1cccc(SCC(=O)O)c1` is ____.
Reply: 0

Query: Quick check: […]. coli of `O=C(/C=C/c1ccc2c(c1)OCO2)Nc1ncc([N+](=O)[O-])s1` ?
Reply: 16

Query: Field request: […]. coli | item: `NS(=O)(=O)c1ccc(CCNC(=O)COc2ccc(Cl)cc2Cl)cc1`
Reply: 9

Query: Sample `O=C(NCCNc1ccc([N+](=O)[O-])cc1)c1ccccc1Br` — what was its […]. coli?
Reply: 0

Query: Please give the measured […]. coli for this compound: `O=C(O)c1nonc1NCn1cnnn1`
Reply: 8

Query: // […]. coli lookup, key: `CSc1ccccc1NC(=S)Nc1cccnc1`
Reply: 0

====

- ASSAYED_TARGET: ecNadD (Escherichia coli (strain K12))
- ASSAY_EXPLANATION: biochemical
- Type: biochemical
OBSERVATION_TYPE: […]. coli (%)
Express it in %; write the number only.

Query: Requested field: […]. coli. Item: `CCn1c(SCC(N)=O)nnc1-c1ccc(Cl)cc1`
Reply: 14

Query: Reported […]. coli, compound `OCC#CCSc1nnc(-c2cccc(Br)c2)o1` : ____
Reply: 0

Query: […]. coli for `O=C(CSc1ccccc1)Nc1cc(C(=O)O)cc(C(=O)O)c1` ?
Reply: 0

Query: // returns reported […]. coli for input `CS(=O)(=O)NCCOc1ccc(S(=O)(=O)NCc2ccccc2)cc1`
Reply: 3

Query: Please give the measured […]. coli for this compound: `COc1cccc(C=C2C(=O)NC(=O)NC2=O)c1OCC(=O)O`
Reply: 10

====

Reported values of […]. coli for individual entries
- ASSAYED_TARGET: ecNadD (Escherichia coli (strain K12))
- ASSAY_EXPLANATION: biochemical
- Assay type: biochemical
Give the number; % is assumed, so skip it.

Cc1ccc(-c2nnc(SCC(=O)O)[nH]2)cc1    4
Cc1c(NC(=O)CSS(=O)(=O)O)c(=O)n(-c2ccccc2)n1C    24
COCCNS(=O)(=O)c1ccc2c(c1)CCN2C(=O)CCC(=O)O    1

Query: I have this molecule here, `O=C(O)c1cc(NS(=O)(=O)c2cccc3nsnc23)cc(C(=O)O)c1` , and I need its recorded […]. coli.
Reply: 5

Query: Give its […]. coli value. Item: `O=C(O)c1cccc(-n2nc(O)ccc2=O)c1`
Reply: 4

Query: Quick check: […]. coli of `O=[N+]([O-])c1ccc2[nH]c(CCc3nc4cc([N+](=O)[O-])ccc4[nH]3)nc2c1` ?
Reply: 0

Query: Entry under review: `Cc1ccc(C(=O)N/N=C/c2ccc(O)c(I)c2)cn1` . Reported […]. coli?
Reply: 5

Query: Value lookup for […]. coli; key = `Cc1cc(S(=O)(=O)Nc2cccc(C(=O)O)c2)ccc1Cl`
Reply: 0

Query: # […]. coli lookup, item `O=C(Cn1cnc2ccccc2c1=O)Nc1nccs1`
Reply: 6

====

This section presents molecules with their documented […]. coli values.
- ASSAYED_TARGET: ecNadD (Escherichia coli (strain K12))
- ASSAY_EXPLANATION: biochemical
- Format: biochemical
Just the number please, in %, no unit attached.

Cc1ccc(S(=O)(=O)/N=C(/NCC(=O)O)c2ccccc2)cc1    0
O=C(CSc1nc2ccccc2o1)Nc1nncs1    0
O=C(O)c1ccc(-c2ccccc2F)o1    0
O=C(O)CCCC(=O)Nc1nc2ccccc2s1    0
CC(=NNC(=O)COc1ccc(C)cc1)C(=O)O    3
O=C(O)C1=C(c2cc([N+](=O)[O-])ccc2O)N=S=N1    4
O=C(O)CC(NC(=O)c1ccccc1NC(=O)c1ccco1)C(=O)O (stereo not shown)    10
O=C(O)c1ccc(Nc2nc(-c3ccc(Cl)cc3)cs2)cc1    22
CC(=O)c1ccc(NC(=O)CC(NCc2cccnc2)C(=O)O)cc1 (stereo not shown)    7

Query: Using the record for `Cc1nnc(N/N=C/c2ccccc2C(=O)O)nc1O` , report its […]. coli.
Reply: 0

====

- ASSAYED_TARGET: baNadD (Bacillus anthracis)
- Sequence (C3L5T6 whole entry, looked up): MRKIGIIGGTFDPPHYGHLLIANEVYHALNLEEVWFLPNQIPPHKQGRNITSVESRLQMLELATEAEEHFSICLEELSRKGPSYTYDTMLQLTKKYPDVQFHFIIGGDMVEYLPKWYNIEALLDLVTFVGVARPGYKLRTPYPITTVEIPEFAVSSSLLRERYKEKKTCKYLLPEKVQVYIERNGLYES
- ASSAY_EXPLANATION: biochemical
- Assay type: biochemical
OBSERVATION_TYPE: […]. anthracis (%)
Express your answer in %, writing the number without its unit.

Worked cases, answers included:
O=C1NC(=O)/C(=C\c2ccc(C(=O)O)cc2)N1    34
Cc1nn(-c2ccc([N+](=O)[O-])cc2)c(Cl)c1S(=O)(=O)O    5

Query: Need […]. anthracis, item `O=C(O)Cn1cc(Cl)c([N+](=O)[O-])n1`
Reply: 14

Query: Endpoint output: […]. anthracis of `CS(=O)(=O)N(CC(=O)Nc1ccccc1Br)c1ccc(Cl)cc1` . Value?
Reply: 54

====

- ASSAYED_TARGET: ecNadD (Escherichia coli (strain K12), UniProt P0A752)
- ASSAY_EXPLANATION: biochemical
- ASSAY_CONDITIONS: substrate ATP varied, 0.5 mM NaMN fixed, apparent value
OBSERVATION_TYPE: Ki
Respond with a number, then the unit of measure.

Query: Can you look up Ki on ecNadD (Escherichia coli (strain K12), UniProt P0A752) for O=C(CCC(=O)Nc1cccc(Cl)c1)N/N=C/c1c2ccccc2cc2ccccc12 [01_02] ?
Reply: 5 µM

====

- ASSAYED_TARGET: baNadD (Bacillus anthracis)
- ASSAY_EXPLANATION: biochemical
- Type: biochemical
OBSERVATION_TYPE: […]. anthracis (%)
Kindly provide the numeric value in % only, without the unit symbol.

Would you please look over these solved cases?
NS(=O)(=O)c1ccc(/N=C/c2ccc(Br)cc2)cc1 [compound 214]    0
O=C(Nc1ccccc1C(=O)O)c1ccc(Br)o1 [compound 036]    0
O=[N+]([O-])/C=C/Nc1cccc([N+](=O)[O-])c1 [compound 061]    0
Oc1c(Br)cc(Cl)cc1/C=N/c1ccccn1 [compound 044]    0

Switching to the query record.
Query: Which […]. anthracis value belongs to O=C(O)CCCC(=O)Nc1nc2ccccc2s1 [compound 207] ?
Reply: 7

====

- ASSAYED_TARGET: ecNadD (Escherichia coli (strain K12))
- ASSAY_EXPLANATION: biochemical
- Assay type: biochemical
OBSERVATION_TYPE: […]. coli (%)
// note: answer is a bare numeric in %

Reference set (5 entries):
Cc1nn(-c2ccc([N+](=O)[O-])cc2)c(Cl)c1S(=O)(=O)O [compound 262]    0
Nc1nc(-c2ccc(NC(=O)c3ccc(Cl)cc3)cc2)cs1 [compound 022]    24
O=S(=O)(Nc1ccc(Cl)cc1)c1ccc(Cl)s1 [compound 297]    0
Nc1cc(NCCCCCC(=O)O)ccc1[N+](=O)[O-] [compound 034]    21
CN1CCN(C(=O)c2ccccc2C(=O)O)CC1 [compound 190]    1

Query: Param readout= […]. coli; system= ecNadD (Escherichia coli (strain K12)); entry= O=C(O)C(Cc1ccccc1)NS(=O)(=O)c1ccc2c(c1)OCCO2 (stereo not shown) [compound 246] ; returns value.
Reply: 0

Query: Notebook entry, ecNadD (Escherichia coli (strain K12)) assay: […]. coli of Cc1cc(N/C=C2\N=C(c3ccc(Cl)cc3)OC2=O)no1 [compound 066] = ?
Reply: 13

Query: # get_value(readout= […]. coli, system= ecNadD (Escherichia coli (strain K12))) for Cc1ccc(-c2nnc(SCC(=O)O)o2)cc1 [compound 201]
Reply: 0

Query: Give the reported […]. coli for Cc1ccc(C(=O)Nc2nc3ccc(Br)cc3s2)o1 [compound 123] (system: ecNadD (Escherichia coli (strain K12))).
Reply: 7

Query: I'm curious: which […]. coli was measured for N/N=C/c1c(Cl)cccc1Cl [compound 191] tested on ecNadD (Escherichia coli (strain K12))?
Reply: 1

Query: Notebook: pull reported […]. coli for ecNadD (Escherichia coli (strain K12)), entry O=C(O)C1CCCN(S(=O)(=O)c2cccc([N+](=O)[O-])c2)C1 (stereo not shown) [compound 227]
Reply: 0

Query: What measured […]. coli is associated with N=C1NC(=O)C(Cc2ccccc2Cl)S1 (stereo not shown) [compound 198] on ecNadD (Escherichia coli (strain K12))?
Reply: 0

Query: Query for ecNadD (Escherichia coli (strain K12)): what […]. coli does the record show for COc1ccc(NS(=O)(=O)c2ccc(SC)cc2)cc1 [compound 103] ?
Reply: 9

Query: Given the entry Oc1c(Cl)cc(Cl)cc1/C=N/c1nc[nH]n1 [compound 038] , what […]. coli was observed with ecNadD (Escherichia coli (strain K12))?
Reply: 20
